// reported Ratio CC50/EC50 for each item listed
assay: Selectivity index, ratio of CC50 for mouse UC1B cells to EC50 of Murine polyomavirus 2PTA2; format: functional

- compound: "CCCCCCCCCCCCCCCCOCCOP1(=O)CO[C@@H](Cn2cnc(N)nc2=O)CO1 (stereo partly specified)"
  result: 33.6
- compound: "Nc1ccn(C[C@@H](CO)OCP(=O)(O)O)c(=O)n1.O.O [CIDOFOVIR]"
  result: 8.9
- compound: "Nc1ccn(C[C@H]2COP(=O)(O)CO2)c(=O)n1 [CYCLIC CIDOFOVIR]"
  result: 9.5
- compound: "Nc1ncn(C[C@H]2COP(=O)(O)CO2)c(=O)n1"
  result: 6.8

Looking up Nc1cc(OCCOCP(=O)(O)O)nc(N)n1 , I found its Ratio CC50/EC50 recorded as 2.7

Looking up Nc1ncnc2c1ncn2C[C@H]1COP(=O)(O)CO1 , I found its Ratio CC50/EC50 recorded as 4
